Assay: photoluminescence quantum yield (fraction); solvent given as SMILES
Details: in ClC(Cl)Cl

{"columns": ["STRUCTURE NOTATION", "photoluminescence quantum yield"],
 "data": [
  ["COc1ccc(-c2nc(-c3ccccc3O)c(-c3ccccc3O)n2-c2ccc(C)cc2)cc1", 0.01],
  ["CCCN1c2ccccc2Sc2cc(/C=C\\c3cc(=O)oc4cc(O)ccc34)ccc21", 0.74],
  ["CC1=CC(C)=[N+]2C1=C(c1ccc(I)cc1)c1c(C)cc(C)n1[B-]21Oc2ccccc2O1", 0],
  ["CCCCCCCCn1c(=O)c2cc3cc4cc5c(=O)n(CCCCCCCC)c(=O)c5cc4c(-c4ccc(N(c5ccccc5)c5ccccc5)cc4)c3cc2c1=O", 0.04],
  ["CC(C)C[Si](C#Cc1c2c(=O)c3ccccc3c2c(C#C[Si](CC(C)C)(CC(C)C)CC(C)C)c2c(=O)c3ccccc3c12)(CC(C)C)CC(C)C", 0.1],
  ["F[B-]1(F)n2c(-c3ccccc3)cc(-c3ccccc3)c2N=C2C(c3ccccc3)=CC(c3ccccc3)=[N+]21", 0.34],
  ["CC(C)c1cccc(C(C)C)c1-n1c(=O)c2cc3nc(-c4ccccc4)c4cc5c(=O)n(-c6c(C(C)C)cccc6C(C)C)c(=O)c6cc7nc(-c8ccccc8)c8cc(c1=O)c2c1c3c4c(c65)c7c81", 0.25],
  ["O=c1oc2ccccc2cc1-c1nc2ccccc2o1", 0.87],
  ["CCCCCCC(CCCCCC)N1C(=O)c2cccc3c(-c4ccccc4)ccc(c23)C1=O", 0.78]
]}

====

Assay: photoluminescence quantum yield (fraction); solvent given as SMILES
Details: in CS(C)=O
Consider the following molecules and their measured photoluminescence quantum yield readings.
ENDPOINT: photoluminescence quantum yield

{"columns": ["MOLECULE", "ENDPOINT", "MEASURED"],
 "data": [
  ["CC(=O)Nc1ccc(S(=O)(=O)O)c(/N=N/c2c(O)c3ccccc3n(C)c2=O)c1", "photoluminescence quantum yield", 0.03],
  ["N#CC1=C(N)n2c(=O)c3ccccc3c(=O)n2C1c1ccccc1 (stereo not given)", "photoluminescence quantum yield", 0.057],
  ["CCC1(CC)c2cc(N(C)C)ccc2-c2ccc(C(F)(F)F)cc21", "photoluminescence quantum yield", 0.53],
  ["CSc1sc(C(N)=O)c2nnn(C)c(=O)c12", "photoluminescence quantum yield", 0.1],
  ["CCOC(=O)c1ccccc1-c1c2ccc(=O)cc-2oc2cc(OC(=O)[C@H](CO[Si](C)(C)C(C)(C)C)NC(=O)OC(C)(C)C)ccc12", "photoluminescence quantum yield", 0.01],
  ["CCOC(=O)c1ccc(NC(=O)COc2cc3c4c([nH]c3c(C)c2C)C(=O)CCC4)cc1", "photoluminescence quantum yield", 0.123],
  ["CN1/C(=C/C=C(/C=C/c2sc3ccccc3[n+]2C)c2cccc(C(F)(F)F)c2)Sc2ccccc21", "photoluminescence quantum yield", 0.24],
  ["O=c1oc2ccccc2c2c1c(=O)oc1ccc3ccc(O)cc3c12", "photoluminescence quantum yield", 0.02],
  ["CCOC(=O)C1=C(N)n2c(=O)c3ccccc3c(=O)n2C1c1ccccc1 (stereo not given)", "photoluminescence quantum yield", 0.136],
  ["Cn1cc(-c2nc3ccccc3nc2/C=C/N2CCCC2)c2ccccc21", "photoluminescence quantum yield", 0.496],
  ["c1ccc2c(c1)CCc1c-2cnc2c1-c1ccccc1CC2", "photoluminescence quantum yield", 0.227],
  ["C(/C=C/Nc1ccccc1)=[NH+]c1ccccc1", "photoluminescence quantum yield", 0.08],
  ["CN(C)c1ccc2nc(-c3ccc(C(=O)OC[C@H](NC(=O)OC(C)(C)C)C(=O)OCc4ccccc4)cc3)sc2c1", "photoluminescence quantum yield", 0.94],
  ["CC(=O)O[B-]1(OC(C)=O)OC(/C=C/c2cccc3ccccc23)=CC(/C=C/c2cccc3ccccc23)=[O+]1", "photoluminescence quantum yield", 0.38],
  ["c1ccc(-c2nc3sc4cc5c(cc4c3s2)OCO5)cc1", "photoluminescence quantum yield", 0.62]
]}
